// data source = patent US7495021B2

In this section we review reported melting point values for a set of molecules.

{"columns": ["structure notation", "melting point / °C"],
 "data": [
  ["CCc1nc2c(o1)C(=O)C=C(Nc1ccc(F)cc1)C2=O", 232],
  ["CCc1nc2c(o1)C(=O)C(C)=C(NCCN(C)C)C2=O", 135],
  ["CCc1nc2c(o1)C(=O)C=C(Nc1ccccc1)C2=O", 200],
  ["CCc1nc2c(o1)C(=O)C(Cl)=C(Nc1ccccc1)C2=O", 159]
]}
